Please provide measured protein stability index for the entries that follow.
B1: MCOLN1 (parent)
chain: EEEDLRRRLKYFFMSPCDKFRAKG

# Variants of: B1
# Procedure Summary: protein stability index of a GFP-peptide fusion (GPS, HEK-293T) (PSI 1-6); higher = more stable;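 note: lentivirally expressed fusions sorted by FACS into six bins by GFP to DsRed ratio, PSI derived from sequencing read proportions per bin multiplied by bin number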
# Test Parameters: c terminus: a fixed tail appended
One number for each entry.

EEEDLRRRLKYFFMSPCDKFRMKG :: 2.13
EEEDLRRRLKYFFMGPCDKFRAKG :: 2.77
EEEDLRRRLKYFFMSPCDKFRAKF :: 1.8
EEEDLRRRLKYFFMSPCDNFRAKG :: 2.48
EEEDLRRRLKYFFMSPCDKFQAKG :: 3.04
EEEDLRRRLKYFFMLPCDKFRAKG :: 2.05

Dear reader, for each entry below, please note its protein stability index.
1. EEEDLRRRLQYFFMSPCDKFRAKG
2. EEEDLRRRLKYFFNSPCDKFRAKG

Marked response:
2.26
3.3
